Provenance of the data: ChEMBL document CHEMBL2176893

target: High affinity cGMP-specific 3',5'-cyclic phosphodiesterase 9A (Homo sapiens, UniProt O76083); test: Inhibition of human recombinant PDE9A expressed in Sf9 cells using [3H]cGMP as substrate after 30 mins by scintillation proximity assay
Sequence (O76083 whole entry): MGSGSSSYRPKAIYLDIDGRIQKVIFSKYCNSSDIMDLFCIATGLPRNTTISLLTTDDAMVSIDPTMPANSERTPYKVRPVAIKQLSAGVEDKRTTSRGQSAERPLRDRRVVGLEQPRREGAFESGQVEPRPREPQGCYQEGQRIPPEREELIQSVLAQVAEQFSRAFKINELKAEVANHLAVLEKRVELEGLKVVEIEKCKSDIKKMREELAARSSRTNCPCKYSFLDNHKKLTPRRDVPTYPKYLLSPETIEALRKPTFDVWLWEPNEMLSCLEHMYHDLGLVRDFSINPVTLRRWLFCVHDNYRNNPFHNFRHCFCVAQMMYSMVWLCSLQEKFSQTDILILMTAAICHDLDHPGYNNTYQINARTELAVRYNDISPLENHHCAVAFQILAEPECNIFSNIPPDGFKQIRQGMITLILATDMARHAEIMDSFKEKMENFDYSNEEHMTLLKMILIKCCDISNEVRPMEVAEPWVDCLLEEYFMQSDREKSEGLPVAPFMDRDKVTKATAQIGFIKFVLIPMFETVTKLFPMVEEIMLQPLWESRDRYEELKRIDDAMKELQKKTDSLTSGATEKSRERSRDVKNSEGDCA
property: pIC50
Reminder that pIC50 is minus the log10 of a molar concentration.

Here are 2 molecules together with their reported answers.
C[C@@H]1CN(Cc2ccccc2)C[C@H]1c1nc2c(cnn2C2CCOCC2)c(=O)[nH]1: 8.31
O=c1[nH]c(Cc2ccccc2)nc2c1cnn2C1CCOCC1: 9.00

Now look at this entry.
Query: Which value of pIC50 has been reported for C[C@@H]1CN(Cc2ccccc2F)C[C@H]1c1nc2c(cnn2C2CCOCC2)c(=O)[nH]1 in the records?
Reply: 8.34
